Tested on: CCRIS mutagenicity, Ames/micronucleus/aberration tests
TEST_DETAILS: CCRIS mutagenicity studies
CONDITION_LABEL: Test System: AMES SALMONELLA TYPHIMURIUM; Strain/Indicator: TA98; Metabolic Activation: NONE; Method: STANDARD PLATE
Active and inactive are the calls of the source. How the calls were made is not given here.
Give one outcome, nothing more. List: 1.0 = active, 0.0 = inactive

So what was the verdict on C[C@]12CC[C@H](OC(=O)/C=C/c3cccc(N(CCCl)CCCl)c3)C[C@@H]1CC[C@@H]1[C@@H]2CC[C@]2(C)NC(=O)CC[C@@H]12 in this test?
0.0

So what was the verdict on COc1cc(N)c(OC)cc1N in this test?
0.0

So what was the verdict on Nc1ncnc2c1ncn2[C@H]1C[C@H](O)[C@@H](CO)O1 in this test?
0.0

So what was the verdict on CC(C)CCON=O in this test?
0.0

So what was the verdict on O=C1C=CC(=O)C=C1 in this test?
0.0

So what was the verdict on Cc1cc2nc3ccc(=[N+](C)C)cc-3sc2cc1N in this test?
0.0

So what was the verdict on O=C1c2ccccc2C(=O)c2ccccc21 in this test?
0.0

So what was the verdict on CN=C1C=CC(=C(c2ccc(N(C)C)cc2)c2ccc(N(C)C)cc2)C=C1 in this test?
0.0

So what was the verdict on COc1cc(CCC(C)=O)ccc1O in this test?
0.0

So what was the verdict on COC(=O)Nc1nc2ccc(OS(=O)(=O)c3ccc(F)cc3)cc2[nH]1 in this test?
0.0

So what was the verdict on O=c1[nH]c(=O)n([C@H]2C[C@H](O)[C@@H](CO)O2)cc1Br in this test?
0.0

So what was the verdict on Cc1cc(N(CCO)CCO)ccc1N=Nc1ccc(N)cc1 in this test?
0.0

So what was the verdict on COc1ccc2cc(CCC(C)=O)ccc2c1 in this test?
0.0

So what was the verdict on O=P([O-])([O-])OC(CCO)CCO.O=P([O-])([O-])OCC(O)CO.[Mn+2].[Mn+2] in this test?
0.0

So what was the verdict on COc1cc([N+](=O)[O-])ccc1N=NC(C(C)=O)C(=O)Nc1ccccc1OC (stereo not drawn) in this test?
0.0

So what was the verdict on COc1ccc(N)c(OC)c1 in this test?
0.0

So what was the verdict on Cc1c2ccccc2c(CBr)c2c1ccc1ccccc12 in this test?
1.0

So what was the verdict on CC(=O)[C@]1(O)Cc2c(O)c3c(c(O)c2[C@@H](O)C1)C(=O)c1c(O)cccc1C3=O in this test?
1.0

So what was the verdict on O=[N+]([O-])c1c(-c2ccc(Cl)cc2)nc2n1CCS2 in this test?
0.0

So what was the verdict on CC(C)Nc1nc(N)nc(Cl)n1 in this test?
0.0

So what was the verdict on Nc1c(N=Nc2ccc([N+](=O)[O-])cc2)c(S(=O)(=O)O)cc2c1C(=O)/C(=N\Nc1ccc(-c3ccc(NN=C4C=CC(=O)C=C4)cc3)cc1)C(S(=O)(=O)O)=C2 in this test?
0.0

So what was the verdict on O=[N+]([O-])c1c2c(c3ccc4cccc5ccc1c3c45)CCCC2O (stereo not drawn) in this test?
0.0

So what was the verdict on O=S(=O)(c1ccc(Cl)cc1)c1cc(Cl)c(Cl)cc1Cl in this test?
0.0
